B1: EHEE_rd4_0086 (parent)
chain: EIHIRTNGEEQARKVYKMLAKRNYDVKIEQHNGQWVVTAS

- Variants of: B1
- Method: folding stability dG (cDNA display proteolysis); higher = more stable
- Test Parameters: PBS, room temperature
Test Readout: folding stability dG

[
  {
    "Mutation Key": "K21F",
    "Endpoint Value": "1.7 kcal/mol"
  },
  {
    "Mutation Key": "M18E",
    "Endpoint Value": "1.67 kcal/mol"
  },
  {
    "Mutation Key": "S40V",
    "Endpoint Value": "1.98 kcal/mol"
  },
  {
    "Mutation Key": "A39I",
    "Endpoint Value": "2.85 kcal/mol"
  },
  {
    "Mutation Key": "R22F",
    "Endpoint Value": "2.04 kcal/mol"
  },
  {
    "Mutation Key": "A12V",
    "Endpoint Value": "-0.114 kcal/mol"
  },
  {
    "Mutation Key": "K17V",
    "Endpoint Value": "1.91 kcal/mol"
  },
  {
    "Mutation Key": "V36T",
    "Endpoint Value": "1.39 kcal/mol"
  },
  {
    "Mutation Key": "K21V",
    "Endpoint Value": "1.63 kcal/mol"
  },
  {
    "Mutation Key": "K21A",
    "Endpoint Value": "2.4 kcal/mol"
  },
  {
    "Mutation Key": "I28K",
    "Endpoint Value": "-0.269 kcal/mol"
  },
  {
    "Mutation Key": "R5W",
    "Endpoint Value": "2.43 kcal/mol"
  },
  {
    "Mutation Key": "G8S",
    "Endpoint Value": "3.25 kcal/mol"
  },
  {
    "Mutation Key": "L19W",
    "Endpoint Value": "1.02 kcal/mol"
  },
  {
    "Mutation Key": "I28R",
    "Endpoint Value": "-0.747 kcal/mol"
  },
  {
    "Mutation Key": "G33E",
    "Endpoint Value": "1.21 kcal/mol"
  },
  {
    "Mutation Key": "G33K",
    "Endpoint Value": "0.996 kcal/mol"
  },
  {
    "Mutation Key": "V36W",
    "Endpoint Value": "2.3 kcal/mol"
  },
  {
    "Mutation Key": "N7V",
    "Endpoint Value": "1.66 kcal/mol"
  },
  {
    "Mutation Key": "E10F",
    "Endpoint Value": "1.73 kcal/mol"
  },
  {
    "Mutation Key": "E10D",
    "Endpoint Value": "1.74 kcal/mol"
  },
  {
    "Mutation Key": "A20M",
    "Endpoint Value": "2.21 kcal/mol"
  },
  {
    "Mutation Key": "G33I",
    "Endpoint Value": "0.069 kcal/mol"
  },
  {
    "Mutation Key": "N23K",
    "Endpoint Value": "1.68 kcal/mol"
  },
  {
    "Mutation Key": "Y24T",
    "Endpoint Value": "0.886 kcal/mol"
  },
  {
    "Mutation Key": "K27A",
    "Endpoint Value": "1.26 kcal/mol"
  },
  {
    "Mutation Key": "H31E",
    "Endpoint Value": "1.85 kcal/mol"
  },
  {
    "Mutation Key": "E29M",
    "Endpoint Value": "1.93 kcal/mol"
  },
  {
    "Mutation Key": "K27R",
    "Endpoint Value": "1.95 kcal/mol"
  },
  {
    "Mutation Key": "A20E",
    "Endpoint Value": "1.52 kcal/mol"
  },
  {
    "Mutation Key": "S40W",
    "Endpoint Value": "2.2 kcal/mol"
  },
  {
    "Mutation Key": "Y16T",
    "Endpoint Value": "0.377 kcal/mol"
  },
  {
    "Mutation Key": "E1D",
    "Endpoint Value": "1.72 kcal/mol"
  },
  {
    "Mutation Key": "H31V",
    "Endpoint Value": "2.24 kcal/mol"
  },
  {
    "Mutation Key": "G33S",
    "Endpoint Value": "1.08 kcal/mol"
  },
  {
    "Mutation Key": "I4F",
    "Endpoint Value": "2.16 kcal/mol"
  },
  {
    "Mutation Key": "V15N",
    "Endpoint Value": "-0.279 kcal/mol"
  },
  {
    "Mutation Key": "K27F",
    "Endpoint Value": "1.33 kcal/mol"
  },
  {
    "Mutation Key": "E9T",
    "Endpoint Value": "0.873 kcal/mol"
  },
  {
    "Mutation Key": "H31C",
    "Endpoint Value": "2.09 kcal/mol"
  },
  {
    "Mutation Key": "N7Y",
    "Endpoint Value": "1.99 kcal/mol"
  },
  {
    "Mutation Key": "K14F",
    "Endpoint Value": "1.89 kcal/mol"
  },
  {
    "Mutation Key": "H3M",
    "Endpoint Value": "2.23 kcal/mol"
  },
  {
    "Mutation Key": "I4L",
    "Endpoint Value": "1.12 kcal/mol"
  },
  {
    "Mutation Key": "Q30I",
    "Endpoint Value": "2.1 kcal/mol"
  },
  {
    "Mutation Key": "R5A",
    "Endpoint Value": "1.53 kcal/mol"
  },
  {
    "Mutation Key": "V15L",
    "Endpoint Value": "2.35 kcal/mol"
  },
  {
    "Mutation Key": "G8R",
    "Endpoint Value": "2.17 kcal/mol"
  },
  {
    "Mutation Key": "E9P",
    "Endpoint Value": "1.92 kcal/mol"
  },
  {
    "Mutation Key": "I2S",
    "Endpoint Value": "0.144 kcal/mol"
  },
  {
    "Mutation Key": "R13W",
    "Endpoint Value": "2.33 kcal/mol"
  },
  {
    "Mutation Key": "E29D",
    "Endpoint Value": "1.26 kcal/mol"
  },
  {
    "Mutation Key": "A20W",
    "Endpoint Value": "1.46 kcal/mol"
  },
  {
    "Mutation Key": "G33A",
    "Endpoint Value": "0.852 kcal/mol"
  },
  {
    "Mutation Key": "N32S",
    "Endpoint Value": "1.38 kcal/mol"
  },
  {
    "Mutation Key": "K17T",
    "Endpoint Value": "1.91 kcal/mol"
  },
  {
    "Mutation Key": "E1I",
    "Endpoint Value": "2.48 kcal/mol"
  },
  {
    "Mutation Key": "A39Y",
    "Endpoint Value": "2.29 kcal/mol"
  },
  {
    "Mutation Key": "H3T",
    "Endpoint Value": "2.41 kcal/mol"
  },
  {
    "Mutation Key": "T6F",
    "Endpoint Value": "3.03 kcal/mol"
  },
  {
    "Mutation Key": "K17I",
    "Endpoint Value": "2.03 kcal/mol"
  }
]
